system: HaCat; assay: Cytotoxic Profiling of Annotated Libraries Using Quantitative High-Throughput Screening (AID 1296008); settings: Five cell lines viability, CellTiter-Glo ATP luminescence, 48-72 h; further: nearly all actives have a fitted effect of over 60% in size
Records with an inconclusive call do not appear. Activity calls are given as the source filed them. The call rests on the fitted dose curve; in most records, active means well fitted inhibition curve with a large enough effect; inconclusive means small, poorly fitted or top-dose-only effect; inactive means flat fitted curve, though single readings scatter.
Outcome codes: T (active), F (inactive)

molecule	answer-label
NC(=O)c1cnc(N[C@@H]2CCCC[C@H]2N)nc1Nc1cccc(-n2nccn2)c1	T
COc1cc(O)c2c(c1)/C=C/C[C@H](O)[C@H](O)C(=O)/C=C\C[C@H](C)OC2=O	T
C=CC(=O)Nc1ccc2ncnc(Nc3cccc(Br)c3)c2c1	T
O=c1nc(-c2ccccn2)sc2ccccc12	F
CC(=O)OC1CC2(C)C(CCC(C)C23Cc2c(O)cc(CO)c(C=O)c2O3)C(C)(C)C1O (centres undefined)	F
NC(=O)c1cnc(N[C@@H]2CCCC[C@@H]2N)nc1Nc1cccc(-n2nccn2)c1	T
O=C(O)CSc1cc(NS(=O)(=O)c2ccc(Br)cc2)c2ccccc2c1O	F
COc1cc(F)c(F)c(Nc2ccc(I)cc2F)c1NS(=O)(=O)C1(CC(O)CO)CC1 (centres undefined)	T
O=C(NCCCn1ccnc1)c1cc(-c2ccco2)on1	F
COc1c(C)cnc(Cn2cc(C#CCC(C)(C)O)c3c(Cl)nc(N)nc32)c1C	T
CC1OC(=O)C[C@@H]2C(C(=O)O)=CO[C@@H](O[C@H]3O[C@H](CO)[C@@H](O)[C@H](O)[C@H]3O)[C@H]12 (some centres undefined)	F
CNCCCC1(c2ccccc2)OC(C)(C)c2ccccc21 (centres undefined)	F
C=CC(=O)Nc1ccc(CN2C(=O)N(c3cc(OC)cc(OC)c3)Cc3cnc(Nc4ccc(N5CCN(C)CC5)cc4)nc32)cc1	T
CC(C)(O)c1ccn2c(-c3ccc(F)c(-c4ccc(F)cc4C#N)c3)cnc2c1F	F
Fc1ccc2c(CCNCc3cccc(OCC(F)(F)C(F)F)c3)c[nH]c2c1	F
CNc1nc(NCc2ccc(NS(C)(=O)=O)cc2Cl)cc(-c2ccccn2)n1	F
COC(=O)Nc1cc(Nc2cc(NC3CC3)c3ncc(C#N)n3n2)c(Cl)c(N2CCN(C)CC2)c1	T
COc1cccc(-c2cc(F)ccc2C2Cc3nc(N)nc(C)c3C(=O)N2)n1 (centres undefined)	T
CC(=O)O[C@H]1C[C@H](OC(C)=O)[C@]2(C)[C@H](CC[C@@]34O[C@@H]3C3=C(C)C(=O)O[C@@H]3C[C@H]42)C1(C)C	F
CC1(C(=O)Nc2ccc(F)nc2)CCCN1c1nc(Nc2cc(C3CC3)[nH]n2)c2cccn2n1 (centres undefined)	T
COC(=O)C1=CO[C@@H](O[C@@H]2O[C@H](CO)[C@@H](O)[C@H](O)[C@H]2O)[C@H]2[C@@H]1C=C[C@]21C=C([C@H](C)OC(=O)/C=C/c2ccc(O)cc2)C(=O)O1	T
O=C(Nc1ccc(N(Cc2ccsc2)C(=O)Cn2nnc3ccccc32)cc1)C1CC1	F
Cc1cc(C)cc(-c2cnc3cc(Cl)c(-c4cccc(O)c4)cc3c2OCCCN)c1	F
C1=C/COCc2cc(ccc2OCCN2CCCC2)Nc2nccc(n2)-c2cccc(c2)COC/1	T
Cc1cc(C)nc(SCC(=O)Nc2ncc(Cc3cccc4ccccc34)s2)n1	F
Cc1ccc(-c2ncc[nH]2)cc1NC(=O)c1ccc(OCc2ccccn2)cc1	F
C=CC(=O)N1CCCN(c2cc(NCCC(=O)O)nc(-c3ccccn3)n2)CC1	F
S=C(c1ccc(-c2ccc(Cl)c(Cl)c2)o1)N1CCCCC1	F
COC1=CC(=O)O/C1=C(/OC)[C@@H]1O[C@H]1c1ccccc1	F

Every entry's value here was drawn from PubChem BioAssay (NCATS).
